Listing: concentration at 1 h of selected compounds
- protocol_text: Plasma drug levels one hour post dose in rat (PO dose)
- Type: ADME, organism-based
- condition: read-out: Plasma level
Your answer is read as µM, so omit the unit and give the number.

{"columns": ["compound", "display_unit", "concentration at 1 h"],
 "data": [
  ["CC(c1cc2ccccc2s1)N(O)C(=O)NCC(N)=O (configuration not stated)", "µM", 14.4],
  ["CC(c1cc2ccccc2s1)N(O)C(=O)Nc1ccccc1 (configuration not stated)", "µM", 0.24]
]}

Task: I'd like to know its concentration at 1 h. The compound in question is CCNC(=O)N(O)C(C)c1cc2ccccc2s1 (configuration not stated)
Result: 21.7

Task: I'd like to know its concentration at 1 h. The compound in question is CC(=O)N(O)C(C)c1cc2ccccc2s1 (configuration not stated)
Result: 66

Task: I'd like to know its concentration at 1 h. The compound in question is CC(c1ccc(-c2ccccn2)o1)N(O)C(N)=O (configuration not stated)
Result: 69

Task: I'd like to know its concentration at 1 h. The compound in question is CC(c1cc2ccccc2s1)N(O)C(=O)C(F)(F)F (configuration not stated)
Result: 7.9

Task: I'd like to know its concentration at 1 h. The compound in question is CC(c1ccc(Cc2ccccc2)s1)N(O)C(N)=O (configuration not stated)
Result: 11
